# System: DMS (dense microspheres)
# test: Test 1: in vitro disruption of DMS on a glass slide, Congo Red red-green birefringence
# details: 10^−2-to-10^−3 M concentration range
metric: activity in the in vitro assay

molecule: CSc1ccc2c(c1)N(CCC1CCCCN1C)c1ccccc1S2 (centres unmarked) [thioridazine]
target-entity: DMS (dense microspheres)
result: inactive

molecule: CCCC(CCC)C(=O)O [valproic acid]
target-entity: DMS (dense microspheres)
result: inactive

molecule: O=C1N(Cc2ccccc2)C2C[S+]3CCCC3C2N1Cc1ccccc1 (centres unmarked) [trimethophan camsylate]
target-entity: DMS (dense microspheres)
result: inactive

molecule: NC(=O)N1c2ccccc2C=Cc2ccccc21 [carbamazepine]
target-entity: DMS (dense microspheres)
result: inactive

# per-item lookup of activity in the in vitro assay; items listed below
1. CN(C)C(=O)Oc1cccc([N+](C)(C)C)c1 [neostigmine methylsulfate]
2. O=P(O)(O)O[C@H]1[C@H](OP(=O)(O)O)[C@@H](OP(=O)(O)O)[C@H](OP(=O)(O)O)[C@@H](OP(=O)(O)O)[C@H]1OP(=O)(O)O [phytic acid]
3. CN(C)C(=O)Oc1ccc[n+](C)c1 [pyridostigmine bromide]

# output
1: not to be active; 2: not to be active; 3: not to be active

# input Need activity in the in vitro assay of O=c1n(CCCN2CCN(c3cccc(Cl)c3)CC2)nc2ccccn12 [trazodone] , thanks.
# output inactive

---

# Tested on: human DMS
# test: In vivo assay: amyloid formation induced by intracerebral injection of human DMS with the compound, Congo Red histology
# Parameters: species or system Male Wistar rats
# details: 10^−5 − 10^−6M; percentage of lesion area; ** = significant decrease from untreated controls
Task for the reader: assign each of the following molecules its reported Mean Lesion Area Composed of CBADs.

These recorded examples may help you get a feel for the data.
molecule: CCc1nc(N)nc(N)c1-c1ccc(Cl)cc1
target-entity: human DMS
Mean Lesion Area Composed of CBADs: 0.2**

molecule: CC[C@H]1OC(=O)[C@H](C)[C@@H](O[C@H]2C[C@@](C)(OC)[C@@H](O)[C@H](C)O2)[C@H](C)[C@@H](O[C@@H]2O[C@H](C)C[C@H](N(C)C)[C@H]2O)[C@](C)(O)C[C@@H](C)C(=O)[C@H](C)[C@@H](O)[C@]1(C)O
target-entity: human DMS
Mean Lesion Area Composed of CBADs: 0.2**

# input Need Mean Lesion Area Composed of CBADs of O=C([O-])c1cc(=O)c2c(OCC(O)COc3cccc4oc(C(=O)[O-])cc(=O)c34)cccc2o1.[Na+].[Na+] [Intal, Cromolyn Sodium] , thanks.
# output 0.4**
